Data provenance is patent US10800789B2.

system: NS5A chimeric genotype 1b Con1 replicon with genotype 3a S52 strain NS5A gene; test: Replicon assay, genotype 3a NS5A chimera; type: cell-based, HCV; details: Hepatitis C virus, read-out: 3a (s) (nM), genotype 3a NS5A chimeric replicon, stable replicon cells (s)
Param label: returns MET when EC50 < 0.08 nM, returns NOT MET otherwise, including exact equality.

QUERY: Below 0.08 nM on EC50? Entry "COC(=O)N[C@H](C(=O)N1[C@@H](C)CC[C@H]1c1nc2ccc3cc4c(cc3c2[nH]1)OCc1cc(-c2cnc([C@@H]3CC[C@H](C)N3C(=O)[C@@H](NC(=O)OC)[C@@H](C)O)[nH]2)ccc1-4)C(C)C"
RESULT: MET

QUERY: Is EC50 strictly under 0.08 nM for the entry "CC[C@H]1CC[C@@H](c2ncc(-c3ccc4c(c3)COc3cc5c(ccc6nc([C@@H]7CC[C@H](C)N7C(=O)[C@@H](NC(=O)OC)C7CCOCC7)[nH]c65)cc3-4)[nH]2)N1C(=O)[C@@H](NC(=O)OC)[C@@H](C)CC" ?
RESULT: NOT MET

QUERY: Record "COC(=O)N[C@H](C(=O)N1[C@@H](C)CC[C@H]1c1ncc(-c2ccc3c(c2)COc2cc4c(ccc5nc([C@@H]6CC[C@H](C)N6C(=O)[C@@H](NC(=O)OC)C6CC6)[nH]c54)cc2-3)[nH]1)C(C)C" : is its EC50 strictly below 0.08 nM?
RESULT: NOT MET

QUERY: Hello, I'm reviewing records and need to know if EC50 of "COC(=O)N[C@H](C(=O)N1[C@@H](C)CC[C@H]1c1ncc(-c2ccc3c(c2)COc2cc4c(ccc5nc([C@@H]6CC[C@H](C)N6C(=O)[C@@H](NC(=O)OC)[C@@H](C)OC(F)F)[nH]c54)cc2-3)[nH]1)C(C)C" is below 0.08 nM. Could you check?
RESULT: MET

QUERY: Strictly below 0.08 nM in EC50? "CC[C@H]1CC[C@@H](c2ncc(-c3ccc4c(c3)COc3cc5c(ccc6nc([C@@H]7CC[C@H](C)N7C(=O)[C@@H](NC(=O)OC)[C@@H](C)OC)[nH]c65)cc3-4)[nH]2)N1C(=O)[C@@H](NC(=O)OC)[C@@H](C)OC"
RESULT: MET

QUERY: Decide: EC50 of "COC(=O)N[C@@H](C)C(=O)N1[C@@H](C)CC[C@H]1c1nc2ccc3cc4c(cc3c2[nH]1)OCc1cc(-c2cnc([C@@H]3CC[C@H](C)N3C(=O)[C@@H](NC(=O)OC)C(C)C)[nH]2)ccc1-4" strictly below 0.08 nM?
RESULT: NOT MET

QUERY: Here's an entry: "COC[C@H]1C[C@@H](c2nc(Cl)c(-c3ccc4c(c3)COc3cc5c(ccc6nc([C@@H]7CC[C@H](C)N7C(=O)[C@@H](NC(=O)OC)C(C)C)[nH]c65)cc3-4)[nH]2)N(C(=O)[C@H](NC(=O)OC)c2ccccc2)C1" . Is its EC50 below 0.08 nM?
RESULT: MET

QUERY: Check if EC50 falls below 0.08 nM for "CC[C@H](C)[C@H](NC(=O)OC)C(=O)N1[C@H](c2ncc(-c3ccc4c(c3)COc3cc5c(ccc6nc([C@@H]7CC[C@H](C)N7C(=O)[C@@H](NC(=O)OC)C7CCOCC7)[nH]c65)cc3-4)[nH]2)C[C@@H]2CCC[C@@H]21" .
RESULT: NOT MET

QUERY: Please indicate whether the reported EC50 of COC(=O)NC(C(=O)N1[C@@H](C)CC[C@H]1c1nc2ccc3cc4c(cc3c2[nH]1)OCc1cc(-c2cnc([C@@H]3CC[C@H](C)N3C(=O)[C@@H](NC(=O)OC)C3CCOCC3)[nH]2)ccc1-4)C(C)C (some centres unmarked) is strictly below 0.08 nM.
RESULT: MET

QUERY: Regarding "COC(=O)N[C@H](C(=O)N1C[C@@H](C)C[C@H]1c1ncc(-c2ccc3c(c2)COc2cc4c(ccc5nc([C@@H]6CC[C@H](C)N6C(=O)[C@@H](NC(=O)OC)C6CCOCC6)[nH]c54)cc2-3)[nH]1)C(C)C" , kindly confirm whether its EC50 is beneath 0.08 nM.
RESULT: NOT MET

QUERY: Bench note: check whether "CC[C@H](C)[C@H](NC(=O)OC)C(=O)N1[C@@H](C)CC[C@H]1c1ncc(-c2ccc3c(c2)COc2cc4c(ccc5nc([C@@H]6CC[C@H](C)N6C(=O)[C@@H](NC(=O)OC)[C@@H](C)OC)[nH]c54)cc2-3)[nH]1" shows EC50 below 0.08 nM
RESULT: MET

QUERY: Consider the compound "COC(=O)N[C@H](C(=O)N1CCC[C@H]1c1ncc(-c2ccc3c(c2)COc2cc4c(ccc5nc([C@@H]6CCCN6C(=O)[C@@H](NC(=O)OC)C6CCOCC6)[nH]c54)cc2-3)[nH]1)C1CCOCC1" . Is its EC50 strictly less than 0.08 nM?
RESULT: NOT MET

QUERY: Input "COC(=O)N[C@H](C(=O)N1[C@@H](C)CC[C@H]1c1ncc(-c2ccc3c(c2)COc2cc4c(ccc5nc([C@@H]6CC[C@H](C)N6C(=O)[C@@H](NC(=O)OC)[C@@H](C)OC)[nH]c54)cc2-3)[nH]1)C(C)C" ; condition: EC50 strictly below 0.08 nM. Does it hold?
RESULT: MET

QUERY: Hi there! Is EC50 for "COC(=O)N[C@H](C(=O)N1[C@@H](C)CC[C@H]1c1ncc(-c2ccc3c(c2)COc2cc4c(ccc5nc([C@@H]6C[C@H](C)CN6C(=O)[C@@H](NC(=O)OC)C6CCOCC6)[nH]c54)cc2-3)[nH]1)C(C)C" below 0.08 nM, do you know?
RESULT: MET

QUERY: Quick check: EC50 of "COC(=O)N[C@H](C(=O)N1CCC[C@H]1c1ncc(-c2ccc3c(c2)COc2cc4c(ccc5nc([C@@H]6CCCN6C(=O)[C@@H](NC(=O)OC)[C@@H](C)OC)[nH]c54)cc2-3)[nH]1)[C@@H](C)OC" under 0.08 nM?
RESULT: NOT MET

QUERY: Bench note: check whether "CC[C@H]1C[C@@H](c2nc3ccc4cc5c(cc4c3[nH]2)OCc2cc(-c3cnc([C@@H]4CC[C@H](C)N4C(=O)[C@@H](NC(=O)OC)C(C)C)[nH]3)ccc2-5)N(C(=O)[C@@H](NC(=O)OC)[C@@H](C)OC)C1" shows EC50 below 0.08 nM
RESULT: NOT MET

QUERY: Hi there! Is EC50 for "COC[C@H]1C[C@@H](c2ncc(-c3ccc4c(c3)COc3cc5c(ccc6nc([C@@H]7C[C@H](COC)CN7C(=O)[C@H](NC(=O)OC)c7ccccc7)[nH]c65)cc3-4)[nH]2)N(C(=O)[C@H](NC(=O)OC)c2ccccc2)C1" below 0.08 nM, do you know?
RESULT: NOT MET
